# Tested on: HCV 1b genotype
# Method: HCV replicon assay (HCV-neo replicon cells, wild-type)
# Format: cell-based, Hepatitis C virus
# Particulars: Hepatitis C virus, HCV 1b genotype replicon; class symbols; read-out: EC50 Range against HCV 1b
Could you please report measured EC50 for the items listed next?

Input COc1cccc(CC(=O)N2C[C@H](OC(C)(C)C)C[C@H]2C(=O)Nc2ccc(-c3cnc(-c4ccc(NC(=O)[C@@H]5C[C@@H](OC(C)(C)C)CN5C(=O)Cc5cccc(OC)c5)cc4)o3)cc2)c1 , output reported EC50.
100 to 999 nM

Input COc1cc(C(=O)N2CCC[C@H]2C(=O)Nc2ccc(-c3nnc(-c4ccc(NC(=O)[C@@H]5CCCN5C(=O)c5cc(Cl)nc(OC)c5)cc4)o3)cc2)cc(Cl)n1 , output reported EC50.
1000 to 10000 nM

Input O=C(Nc1ccc(-c2cnc(-c3ccc(NC(=O)[C@@H]4CCCN4C(=O)C4CSC5CCC(=O)N54)cc3)o2)cc1)[C@@H]1CCCN1C(=O)C1CSC2CCC(=O)N21 (stereo partly drawn) , output reported EC50.
1000 to 10000 nM

Input Cc1cc(C(=O)N2CCC[C@H]2C(=O)Nc2ccc(-c3cnc(-c4ccc(NC(=O)[C@@H]5CCCN5C(=O)c5cc(C)c(C)o5)cc4)o3)cc2)oc1C , output reported EC50.
100 to 999 nM

Input O=C(Nc1ccc(-c2cnc(-c3ccc(NC(=O)[C@@H]4CCCN4C(=O)c4ccc5c(c4)OCO5)cc3)o2)cc1)[C@@H]1CCCN1C(=O)c1ccc2c(c1)OCO2 , output reported EC50.
100 to 999 nM

Input C[C@H](NC(=O)c1nc(Cl)cc2ccccc12)C(=O)Nc1ccc(-c2nnc(-c3ccc(NC(=O)[C@H](C)NC(=O)c4nc(Cl)cc5ccccc45)cc3)o2)cc1 , output reported EC50.
1000 to 10000 nM

---

# Tested on: HCV 1b genotype
# Method: HCV replicon assay (HCV-neo replicon cells, wild-type)
# Format: cell-based, Hepatitis C virus
# Particulars: Hepatitis C virus, HCV 1b genotype replicon; class symbols; read-out: EC50 Range against HCV 1b
pEC50: −log10 of the molar value.
Quantity Kind: pEC50

Input CN(C)[C@H](C(=O)N1CCC[C@H]1C(=O)Nc1ccc(-c2nnc(-c3ccc(NC(=O)[C@@H]4CCCN4C(=O)[C@H](c4ccccc4)N(C)C)cc3)o2)cc1)c1ccccc1 , output reported pEC50.
> 8.34

Input O=C(Nc1ccc(-c2cnc(-c3ccc(NC(=O)[C@@H]4CCCN4C(=O)c4ccccc4F)cc3)o2)cc1)[C@@H]1CCCN1C(=O)c1ccccc1F , output reported pEC50.
6.00 to 7.00

Input CC(C)(C)O[C@@H]1C[C@@H](C(=O)Nc2ccc(-c3cnc(-c4ccc(NC(=O)[C@@H]5C[C@@H](OC(C)(C)C)CN5C(=O)OCc5ccccc5)cc4)o3)cc2)N(C(=O)OCc2ccccc2)C1 , output reported pEC50.
5.00 to 6.00

---

Could you please report measured pEC50 for the items listed next?
# Tested on: HCV 1b genotype
# Method: HCV replicon assay (HCV-neo replicon cells, wild-type)
# Assay type: cell-based, Hepatitis C virus
# Particulars: HCV 1b genotype replicon; class symbols; read-out: EC50 Range against HCV 1b
pEC50: −log10 of the molar value.

Input CN(C)C(Cc1ccc(Br)cc1)C(=O)N1CCC[C@H]1C(=O)Nc1ccc(-c2cnc(-c3ccc(NC(=O)[C@@H]4CCCN4C(=O)C(Cc4ccc(Br)cc4)N(C)C)cc3)o2)cc1 (stereo partly shown) , output reported pEC50.
7.00 to 8.34

Input O=C(Nc1ccc(-c2cnc(-c3ccc(NC(=O)[C@@H]4C[C@@H](O)CN4C(=O)Cc4ccccn4)cc3)o2)cc1)[C@@H]1C[C@@H](O)CN1C(=O)Cc1ccccn1 , output reported pEC50.
6.00 to 7.00

Input CN(C)[C@H](C(=O)N1CCC[C@H]1C(=O)Nc1ccc(-c2cnc(-c3ccc(NC(=O)[C@@H]4CCCN4C(=O)[C@H]([C@H](O)c4ccccc4)N(C)C)cc3)o2)cc1)[C@H](O)c1ccccc1 , output reported pEC50.
5.00 to 6.00

Input C[C@H](NC(=O)[C@@H]1CCCO1)C(=O)Nc1ccc(-c2nnc(-c3ccc(NC(=O)[C@H](C)NC(=O)[C@@H]4CCCO4)cc3)o2)cc1 , output reported pEC50.
5.00 to 6.00

Input CN(C)[C@H](C(=O)N1CCC[C@H]1C(=O)Nc1ccc(-c2cnc(-c3ccc(NC(=O)[C@@H]4CCCN4C(=O)[C@H]([C@H](O)c4ccsc4)N(C)C)cc3)o2)cc1)[C@H](O)c1ccsc1 , output reported pEC50.
5.00 to 6.00

Input C[C@H](NC(=O)[C@H]1CCCO1)C(=O)Nc1ccc(-c2nnc(-c3ccc(NC(=O)[C@H](C)NC(=O)[C@H]4CCCO4)cc3)o2)cc1 , output reported pEC50.
5.00 to 6.00

Input CC(C)(C)O[C@@H]1C[C@@H](C(=O)Nc2ccc(-c3cnc(-c4ccc(NC(=O)[C@@H]5C[C@@H](OC(C)(C)C)CN5C(=O)Cc5ccccn5)cc4)o3)cc2)N(C(=O)Cc2ccccn2)C1 , output reported pEC50.
7.00 to 8.34

Input CN(C)[C@H](C(=O)N1CCC[C@H]1C(=O)Nc1ccc(-c2cnc(-c3ccc(NC(=O)[C@@H]4CCCN4C(=O)[C@H]([C@@H](O)c4ccccc4)N(C)C)cc3)o2)cc1)[C@@H](O)c1ccccc1 , output reported pEC50.
6.00 to 7.00

Input O=C(Nc1ccc(-c2cnc(-c3ccc(NC(=O)[C@@H]4CCCN4C(=O)CN4CCCCC4)cc3)o2)cc1)[C@@H]1CCCN1C(=O)CN1CCCCC1 , output reported pEC50.
5.00 to 6.00

Input O=C(Nc1ccc(-c2cnc(-c3ccc(NC(=O)[C@@H]4CCCN4C(=O)Cc4cnc[nH]4)cc3)o2)cc1)[C@@H]1CCCN1C(=O)Cc1c[nH]cn1 , output reported pEC50.
5.00 to 6.00

Input CN(C)[C@H](C(=O)N1CCC[C@H]1C(=O)Nc1ccc(-c2cnc(-c3ccc(NC(=O)[C@@H]4CCCN4C(=O)[C@H]([C@@H](O)c4ccsc4)N(C)C)cc3)o2)cc1)[C@@H](O)c1ccsc1 , output reported pEC50.
7.00 to 8.34

Input O=C(O)CCC(=O)N1CCC[C@H]1C(=O)Nc1ccc(-c2cnc(-c3ccc(NC(=O)[C@@H]4CCCN4C(=O)CCC(=O)O)cc3)o2)cc1 , output reported pEC50.
5.00 to 6.00

Input CN(C)C(Cn1cncn1)C(=O)N1CCC[C@H]1C(=O)Nc1ccc(-c2cnc(-c3ccc(NC(=O)[C@@H]4CCCN4C(=O)C(Cn4cncn4)N(C)C)cc3)o2)cc1 (stereo partly shown) , output reported pEC50.
6.00 to 7.00

---

# Test system: HCV 1b genotype
# Method: HCV replicon assay (HCV-neo replicon cells, wild-type)
# Type: cell-based, Hepatitis C virus
# Particulars: Hepatitis C virus, HCV 1b genotype replicon; class symbol; read-out: EC50 Range against HCV 1b
Could you please report measured EC50 for the items listed next?

Input COc1cccc2c(C(=O)N3CCC[C@H]3C(=O)Nc3ccc(-c4ccc(-c5ccc(NC(=O)[C@@H]6CCCN6C(=O)[C@H](NC(C)=O)c6ccccc6)cc5)o4)cc3)nc(Cl)cc12 , output reported EC50.
0.00457 to 0.099 µM

Input CC(=O)N1CC=C[C@H]1C(=O)Nc1ccc(-c2cc(-c3ccc(NC(=O)[C@@H]4C=CCN4C(C)=O)cc3)[nH]n2)cc1 , output reported EC50.
1 to 10 µM

Input O=C(Nc1ccc(-c2nnc(-c3ccc(NC(=O)[C@@H]4CCCN4C(=O)Cc4cccs4)cc3)o2)cc1)[C@@H]1CCCN1C(=O)Cc1cccs1 , output reported EC50.
0.1 to 0.999 µM

Input C[C@H](NC(=O)[C@H](O)c1ccccc1)C(=O)Nc1ccc(-c2cnc(-c3ccc(NC(=O)[C@H](C)NC(=O)[C@H](O)c4ccccc4)cc3)o2)cc1 , output reported EC50.
< 0.00457 µM

Input Cn1nc(-c2ccc(NC(=O)[C@@H]3CCCN3C(=O)C3CC3)cc2)cc1-c1ccc(NC(=O)[C@@H]2CCCN2C(=O)C2CC2)cc1 , output reported EC50.
1 to 10 µM

Input COC(C(=O)N1CCC[C@H]1C(=O)Nc1ccc(-c2nnc(-c3ccc(NC(=O)[C@@H]4CCCN4C(=O)C(OC)c4ccccc4)cc3)o2)cc1)c1ccccc1 (stereo partly drawn) , output reported EC50.
0.1 to 0.999 µM

Input O=C(Nc1ccc(-c2cnc(-c3ccc(NC(=O)[C@@H]4CCCN4C(=O)[C@@H]4CCCN4)cc3)o2)cc1)[C@@H]1CCCN1C(=O)[C@@H]1CCCN1 , output reported EC50.
1 to 10 µM

Input O=C(Nc1ccc(-c2cnc(-c3ccc(NC(=O)[C@@H]4CCCN4C(=O)Cc4ccccc4)cc3)o2)cc1)[C@@H]1CCCN1C(=O)Cc1ccccc1 , output reported EC50.
< 0.00457 µM

Input O=C(Nc1ccc(-c2nnc(-c3ccc(NC(=O)[C@@H]4CCCN4C(=O)OCc4ccccc4)cc3)o2)cc1)[C@@H]1CCCN1C(=O)OCc1ccccc1 , output reported EC50.
0.00457 to 0.099 µM

Input O=C(Nc1ccc(-c2cnc(-c3ccc(NC(=O)[C@@H]4CCCN4C(=O)C4CCCCN4CC4CCCCC4)cc3)o2)cc1)[C@@H]1CCCN1C(=O)C1CCCCN1CC1CCCCC1 (stereo partly drawn) , output reported EC50.
0.1 to 0.999 µM

Input O=C(Nc1ccc(-c2cnc(-c3ccc(NC(=O)[C@@H]4CCCN4C(=O)c4cccc(F)n4)cc3)o2)cc1)[C@@H]1CCCN1C(=O)c1cccc(F)n1 , output reported EC50.
0.1 to 0.999 µM

Input CC(=O)N1CCC[C@H]1C(=O)Nc1ccc(-c2nc(-c3ccc(NC(=O)[C@@H]4C=CCN4C(=O)c4ccccc4)cc3)cs2)cc1 , output reported EC50.
1 to 10 µM
